organism: Cavia porcellus; test: Inhibition of histamine release from sensitized guinea pig chopped lung upon antigen challenge at 10 ug/mL.; format: functional
Measured Inhibition of individual entries
Numbers only here, please. The scale is %.

>>> measured_number("CC(=O)c1ccc(O)c(C(=O)c2ccc(Cl)cc2)c1")
61

Note to self: Inhibition recorded for `CCc1ccc(O)c(C(=O)c2ccccn2)c1` was 5

Note to self: Inhibition recorded for `CCc1ccc(O)c(Sc2ccc(Cl)cc2)c1` was 31

Note to self: Inhibition recorded for `Cc1cccc(C(=O)c2ccc(Cl)cc2)c1O` was 6

Note to self: Inhibition recorded for `CCc1ccc(Cc2ccc(F)cc2)c(O)c1` was 33

====

Measured Inhibition of individual entries
species: Homo sapiens; test: Inhibition of Histamine mediator release form passively sensitized human lung upon antigen challenge at 1 ug/mL dose; type: functional
Numbers only here, please. The scale is %.

Use these answered entries as a reference point.
>>> measured_number("CCc1ccc(O)c(C(=O)c2cccs2)c1")
0
>>> measured_number("Cc1cccc(/C(=N/O)c2ccccc2)c1O")
8
>>> measured_number("CCc1cccc(C(=O)c2ccc(Cl)cc2Cl)c1O")
20
>>> measured_number("CCc1ccc([S+](C)[O-])c(C(=O)c2ccc(C)cc2)c1 (stereo not drawn)")
0

API: the following record is the query input.
Note to self: Inhibition recorded for `CCc1ccc(O)c(C(=O)c2ccc(Cl)cc2)c1` was 0

====

species: Cavia porcellus; assay: Inhibition of histamine release from sensitized guinea pig chopped lung upon antigen challenge at 10 ug/mL.; format: functional
measured-parameter: Inhibition (%)
Numbers only here, please. The scale is %.

Use these answered entries as a reference point.
>>> measured_number("CCc1ccc(SC)c(C(=O)c2ccc(F)cc2)c1")
14
>>> measured_number("CCc1ccc(O)c(Cc2ccc(Cl)cc2)c1")
17
>>> measured_number("CCc1ccc([S+](C)[O-])c(C(=O)c2ccc(C)cc2)c1 (stereo not drawn)")
3
>>> measured_number("CCc1ccc([S+](C)[O-])c(C(=O)c2ccc(F)cc2)c1 (stereo not drawn)")
9

Note to self: Inhibition recorded for `CCc1ccc(O)c(C(=O)c2ccc(Cl)cc2)c1` was 3

Note to self: Inhibition recorded for `Cc1ccc(O)c(/C(=N/O)c2ccc(Cl)cc2)c1` was 59

Note to self: Inhibition recorded for `CCc1ccc(/C(=N/O)c2ccc(F)cc2)c(O)c1` was 46

Note to self: Inhibition recorded for `CCc1ccc(O)c(/C(=N/O)c2ccc(Cl)cc2)c1` was 28

====

species: Homo sapiens; assay: Inhibition of Histamine mediator release form passively sensitized human lung upon antigen challenge at 1 ug/mL dose; format: functional
Measured Inhibition of individual entries
Numbers only here, please. The scale is %.

Use these answered entries as a reference point.
>>> measured_number("CCc1ccc(O)c([S+]([O-])c2ccc(Cl)cc2)c1 (stereo not drawn)")
0
>>> measured_number("CCc1ccc(O)c(/C(=N/O)c2ccc(Cl)cc2)c1")
0

Note to self: Inhibition recorded for CN1CCC(=C2c3ccccc3CC(=O)c3sccc32)CC1 [KETOTIFEN] was 0

Data provenance is ChEMBL document CHEMBL1123797.
